Please go through the items and note down their pIC50.
Target: TAF1-BD1 (Homo sapiens, UniProt P21675)
Experiment: TAF1-BD1 TR-FRET Binding Assay
Conditions: read-out: TAF1-BD1 HTRF IC50
Answers are plain numbers, as −log10 of the molar value.

Observe how each entry below is paired with its result.
Consider the compound shown here: C=CCn1cc(C#CC(C)(C)O)c2c(C(=O)OCC)c(C)[nH]c2c1=O [Example 51] What is its recorded pIC50? 5.14

Name the recorded pIC50 for Cc1[nH]c2c(=O)n(C)cc(C#CC(C)(O)C3CC3)c2c1C(=O)OC(C)(C)CC#N (centres unmarked) [Example 134] . 6.65

Given the compound Cc1cc([C@](C)(O)C#Cc2cn(C)c(=O)c3[nH]c(C)c(-c4nnc(C)o4)c23)no1 [Example 193] , what is its reported pIC50? 6.29

I'm hoping you can list pIC50 for every compound here, please.
1. CCOC(=O)c1c(C)[nH]c2c(=O)n(C)cc(C#C[C@@](C)(O)c3ncccn3)c12 [Example 6]
2. CCOC(=O)c1c(C)[nH]c2c(=O)n(C)cc(C#CC(O)(c3cccc(N)c3)C(F)(F)F)c12 (centres unmarked) [Example 2]
3. Cc1cccc(COC(=O)c2c(C)[nH]c3c(=O)n(C)cc(C#CC(C)(C)O)c23)c1 [Example 118]
4. CCOC(=O)c1c(C)[nH]c2c(=O)n(C)cc(C#CC3(O)CCC3)c12 [Example 21]
5. CCOC(=O)c1c(C)[nH]c2c(=O)n(C)cc(C#CC(O)(CC)c3ccccc3)c12 (centres unmarked) [Example 75]

1. 6.00
2. 6.60
3. 6.78
4. 6.39
5. 6.37

Data provenance: patent US10202378B2
